Kindly state growth inhibition for each of the entries shown.
- protocol-text: NCI Yeast Anticancer Drug Screen. Data for the mlh1 rad18 strain (AID 175)
- setup-conditions: S. cerevisiae mlh1 rad18 strain growth inhibition; at 50.0 µM (retest, dose inferred, filed as 5.0); active compounds read high
About 79,000 compounds went through this panel and 15% of them were active in at least one assay; those are over-represented in the sample as a whole.
Kindly provide the numeric value in % only, without the unit symbol.

# input Fill blank: measured growth inhibition of the molecule `CN(C)CCCCN1c2ccccc2Sc2ccc(C(=O)c3ccccc3)cc21` is ____.
# output 82

# input Repeat with `Cc1cc([N+](=O)[O-])ccc1NC(=O)N(C)CCOC(=O)Nc1ccccc1`
# output 96

# input Repeat with C=C1CC2(CCCC3(CC(=C)C(=O)O3)C2(C)C)OC1=O (centres undefined)
# output 97

# input Repeat with `O=[N+]([O-])c1cc([N+](=O)[O-])c2ccccc2c1O`
# output 92

# input Repeat with Cc1ccc(NC(=O)CC2SC(=Nc3ccc(Cl)cc3)NC2=O)cc1C (centres undefined)
# output 12

# input Repeat with `COC(=O)[C@@H]1c2cc3c(c(O)c2[C@@H](OC)C[C@@]1(C)O)C(=O)c1c(O)cc2c(c1C3=O)OC1O[C@@]2(C)[C@H](O)[C@@H](N(C)C)[C@@H]1O`
# output 97

# input Repeat with COC(=O)C1=C(C)NC(C)=C([N+](=O)[O-])C1c1cccc(N=O)c1 (centres undefined)
# output 97

# input Repeat with `CN(C)CCC[Si]1(C)c2ccccc2CCc2ccccc21`
# output 26

# input Repeat with CCC(=O)C(=O)CC1CC(c2ccco2)=Nc2ccccc2S1 (centres undefined)
# output 98

# input Repeat with `O=C1CSC(=S)N1c1ccc(I)cc1`
# output 75

# input Repeat with `Oc1cccc2cc(Br)cnc12`
# output 99

# input Repeat with OCC(O)C(O)C(O)C(O)c1cnn(-c2ccccc2)n1 (centres undefined)
# output -2

# input Repeat with `Cc1ccccc1N=Nc1ccccc1`
# output 98

# input Repeat with `O=C1c2cc(O)ccc2C(=O)c2c1ccc(O)c2O`
# output 99

# input Repeat with O=C(N/N=C/c1ccccc1O)C1Cc2ccccc2C1C(Cl)Cl (centres undefined)
# output 98

# input Repeat with `CC(C)(C)C(OC(=O)Nc1ccccc1)C(C)(C)C`
# output 36

# input Repeat with `CCCCN=C(c1ccc(O)cc1)c1ccc(OC)cc1O`
# output 22

# input Repeat with `O=c1[nH]c(=O)c2n[nH]nc2[nH]1`
# output 6

# input Repeat with `CC1=C(c2ccccc2)C(=O)OC1=O`
# output 14
